# TEST_PARAMETERS: in methanol, 308.15 K
REPORTED_METRIC: solubility (mole fraction)
Quick one: just the number, no unit, thanks!

Memo: `CCOc1ccc2ccccc2c1C(=O)O` , reported solubility (mole fraction): 0.0951

* * *

# TEST_PARAMETERS: in methanol, 278.15 K
REPORTED_METRIC: solubility (mole fraction)
Give the figure by itself; no unit, no explanation.

Record summary for `CCOc1ccc2ccccc2c1C(=O)O` : reported solubility (mole fraction) = 0.0304

* * *

# TEST_PARAMETERS: in methanol, 298.15 K
REPORTED_METRIC: solubility (mole fraction)
Just the number.

# solubility (mole fraction) (compound: `CCOc1ccc2ccccc2c1C(=O)O` ) is 0.0671

* * *

# TEST_PARAMETERS: in isobutanol, 298.15 K
REPORTED_METRIC: solubility (mole fraction)
// print number alone

Per the record, `CCOc1ccc2ccccc2c1C(=O)O` has solubility (mole fraction) of 0.0256

* * *

# TEST_PARAMETERS: in ethanol, 323.15 K
REPORTED_METRIC: solubility (mole fraction)
The reply should be a number, written without any unit.

Reported solubility (mole fraction) ( `CCOc1ccc2ccccc2c1C(=O)O` ) = 0.136

* * *

# TEST_PARAMETERS: in acetone, 283.15 K
REPORTED_METRIC: solubility (mole fraction)
Please state the value as a number alone, without comment.

Note to self: solubility (mole fraction) recorded for `CCOc1ccc2ccccc2c1C(=O)O` was 0.0606

* * *

# TEST_PARAMETERS: in isopropyl acetate, 308.15 K
REPORTED_METRIC: solubility (mole fraction)
The answer should be written as a number, with no unit following it.

The molecule `CCOc1ccc2ccccc2c1C(=O)O` showed solubility (mole fraction) equal to 0.029

* * *

# TEST_PARAMETERS: in ethanol, 298.15 K
REPORTED_METRIC: solubility (mole fraction)

Reported solubility (mole fraction) ( `CCOc1ccc2ccccc2c1C(=O)O` ) = 0.0565

* * *

# TEST_PARAMETERS: in ethanol, 278.15 K
REPORTED_METRIC: solubility (mole fraction)
# output: bare number, no unit

`CCOc1ccc2ccccc2c1C(=O)O` has a reported solubility (mole fraction) of 0.0268

* * *

# TEST_PARAMETERS: in isopropyl acetate, 293.15 K
REPORTED_METRIC: solubility (mole fraction)

The recorded solubility (mole fraction) for `CCOc1ccc2ccccc2c1C(=O)O` is 0.0185

* * *

# TEST_PARAMETERS: in acetone, 303.15 K
REPORTED_METRIC: solubility (mole fraction)

So, `CCOc1ccc2ccccc2c1C(=O)O` ? Its solubility (mole fraction) was 0.0994

* * *

# TEST_PARAMETERS: in ethanol, 318.15 K
REPORTED_METRIC: solubility (mole fraction)
API note: the answer field is a bare number with no unit suffix.

Lab note: `CCOc1ccc2ccccc2c1C(=O)O` gave solubility (mole fraction) of 0.119

* * *

# TEST_PARAMETERS: in acetone, 308.15 K
REPORTED_METRIC: solubility (mole fraction)
Format: numeric value only, no unit, no commentary.

Value of solubility (mole fraction) reported for the compound `CCOc1ccc2ccccc2c1C(=O)O` is 0.112

* * *

# TEST_PARAMETERS: in ethanol, 308.15 K
REPORTED_METRIC: solubility (mole fraction)

Record summary for `CCOc1ccc2ccccc2c1C(=O)O` : reported solubility (mole fraction) = 0.0836
